molecular target: KRAS G12D (Homo sapiens, UniProt P01116, G12D); experiment: KRAS_G12D pERK assay (cellular pERK HTRF assay); assay type: cell-based; design: host or cells: A427 or HPAF-II; settings: KRAS G12D cells (A427, HPAF-II named in method), 2 hours incubation, Phospho-ERK 1/2 HTRF; read-out: G12D_PERK (KRAS_G12D pERK assay IC50)
Sequence (P01116 1-188 isoform P01116-2 G12D): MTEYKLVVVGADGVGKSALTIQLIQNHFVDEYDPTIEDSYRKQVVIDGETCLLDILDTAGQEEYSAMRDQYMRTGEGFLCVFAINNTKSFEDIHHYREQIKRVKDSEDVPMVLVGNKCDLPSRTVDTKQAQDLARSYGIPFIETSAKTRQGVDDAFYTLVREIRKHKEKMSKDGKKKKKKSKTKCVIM
pIC50: −log10 of the molar value.
recorded-endpoint: pIC50

[ask] Report measured pIC50; entry is N#CCCc1cc2c3c(c(OC[C@@]45CCCN4C[C@H](F)C5)nc2c(F)c1-c1cc(O)cc2ccccc12)NC(=O)CN3C1C2CNC1C2 (single isomer, unassigned) [Example 10b]
[reply] 5.30 to 6.00

[ask] Report measured pIC50; entry is C[C@H](Oc1nc2c(F)c(-c3cc(O)cc4ccccc34)c(CCC#N)cc2c2c1CCCN2C1C2CNC1C2)[C@@H]1CCCN1C (single isomer, unassigned) [Example 15b]
[reply] ≥ 7.00

[ask] Report measured pIC50; entry is CN1CCC[C@H]1COc1nc2c(F)c(-c3cc(O)cc4ccccc34)c(CCC#N)cc2c2c1CCCN2C1C2CNC1C2 (single isomer, unassigned) [Example 12b]
[reply] 6.00 to 7.00

[ask] Report measured pIC50; entry is CN(C)C1CN(c2nc3c(F)c(-c4cc(O)cc5ccccc45)c(CCC#N)cc3c3c2NC(=O)CN3C2C3CNC2C3)C1 (single isomer, unassigned) [Example 13a]
[reply] 5.30 to 6.00

[ask] Report measured pIC50; entry is Cn1cnc(-c2nc3c(F)c(-c4cc(O)cc5ccccc45)c(CCC#N)cc3c3c2NC(=O)CN3C2C3CNC2C3)c1 (single isomer, unassigned)
[reply] 6.00 to 7.00

Ref: patent US12030883B2
